target: endogenously expressed human MSR1 on PMA-treated THP-1 cells (human) (UniProt P21757); test: cell-based or functional assay
Sequence (P21757 whole entry): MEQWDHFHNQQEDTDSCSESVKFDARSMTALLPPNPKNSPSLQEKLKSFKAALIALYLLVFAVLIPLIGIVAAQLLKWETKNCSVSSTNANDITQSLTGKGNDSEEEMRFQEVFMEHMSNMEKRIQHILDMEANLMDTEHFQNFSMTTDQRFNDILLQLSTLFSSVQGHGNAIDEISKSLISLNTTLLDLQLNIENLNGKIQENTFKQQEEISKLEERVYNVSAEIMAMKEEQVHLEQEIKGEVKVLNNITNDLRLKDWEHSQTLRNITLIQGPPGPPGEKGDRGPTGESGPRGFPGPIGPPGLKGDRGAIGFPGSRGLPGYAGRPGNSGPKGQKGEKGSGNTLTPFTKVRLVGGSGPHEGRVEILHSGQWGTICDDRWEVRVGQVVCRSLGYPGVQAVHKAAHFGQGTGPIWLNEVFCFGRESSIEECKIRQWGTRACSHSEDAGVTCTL
Reported values of % Internalization for individual entries
METRIC: % Internalization (%)

* H1H27729P-N297Q (antibody, human IgG1, V domains shown) VH: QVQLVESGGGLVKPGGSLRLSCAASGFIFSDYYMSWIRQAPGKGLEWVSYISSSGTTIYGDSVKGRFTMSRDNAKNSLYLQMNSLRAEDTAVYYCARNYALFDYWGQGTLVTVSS VL: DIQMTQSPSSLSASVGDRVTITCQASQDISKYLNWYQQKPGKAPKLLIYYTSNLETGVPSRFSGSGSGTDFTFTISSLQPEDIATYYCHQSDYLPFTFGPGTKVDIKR | 57
* H1H21227N-N297Q (antibody, human IgG1, V domains shown) VH: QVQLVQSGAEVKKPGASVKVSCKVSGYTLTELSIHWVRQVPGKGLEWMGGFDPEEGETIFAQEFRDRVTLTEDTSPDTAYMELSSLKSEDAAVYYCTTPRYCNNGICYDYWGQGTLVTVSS VL: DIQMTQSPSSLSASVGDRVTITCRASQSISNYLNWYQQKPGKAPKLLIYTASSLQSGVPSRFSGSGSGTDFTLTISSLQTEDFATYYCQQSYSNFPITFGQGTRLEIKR | 78.5
* H1H27754P-N297Q (antibody, human IgG1, V domains shown) VH: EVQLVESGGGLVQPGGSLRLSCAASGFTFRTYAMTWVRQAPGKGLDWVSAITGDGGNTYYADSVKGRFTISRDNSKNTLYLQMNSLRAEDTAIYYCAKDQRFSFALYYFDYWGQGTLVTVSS VL: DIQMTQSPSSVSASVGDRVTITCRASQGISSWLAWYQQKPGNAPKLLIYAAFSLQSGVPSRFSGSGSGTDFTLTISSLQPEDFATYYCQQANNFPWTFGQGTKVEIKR | 90
